The following compounds are listed with their measured log10 MIC values.
Tested on: Escherichia coli
test-description: Antimicrobial activity against Escherichia coli MTCC 443 for 24 hrs by microdilution method
Type: functional
applied-conditions: MTCC 443, 24 h
Each number you see is log10 of MIC, and the unit inside the log is µg/mL.

Cc1n[nH]c2c1C(c1cc3ccccc3nc1N1CCOCC1)C(C#N)=C(N)O2 (centres undefined) ... 1.80

Query string: Which log10 MIC value belongs to Cc1ccc2nc(N3CCOCC3)c(C3C(C#N)=C(N)Oc4c3c(=O)oc3ccccc43)cc2c1 (centres undefined) ?
Result string: 2.40

Query string: Query CCn1cc(C(=O)O)c(=O)c2cc(F)c(N3CCNCC3)cc21 [NORFLOXACIN] next
Result string: 1.00

Query string: Query N#CC1=C(N)Oc2c(c(=O)oc3ccccc23)C1c1cc2ccccc2nc1N1CCOCC1 (centres undefined) next
Result string: 2.30

Query string: Query COc1ccc2nc(N3CCOCC3)c(C3C(C#N)=C(N)Oc4c3ccc3ccccc43)cc2c1 (centres undefined) next
Result string: 2.30

Query string: Query COc1ccc2nc(N3CCOCC3)c(C3C(C#N)=C(N)OC4=C3C(=O)CCC4)cc2c1 (centres undefined) next
Result string: 2.30

Query string: Query Cc1ccc2nc(N3CCOCC3)c(C3C(C#N)=C(N)Oc4[nH]nc(C)c43)cc2c1 (centres undefined) next
Result string: 2.30

Query string: Query Cc1ccc2nc(N3CCOCC3)c(C3C(C#N)=C(N)OC4=C3C(=O)CCC4)cc2c1 (centres undefined) next
Result string: 2.30

Query string: Query N#CC1=C(N)Oc2cc(O)ccc2C1c1cc2ccccc2nc1N1CCOCC1 (centres undefined) next
Result string: 2.00

Query string: Query CC1(C)S[C@@H]2[C@H](NC(=O)[C@H](N)c3ccccc3)C(=O)N2[C@H]1C(=O)O [AMPICILLIN] next
Result string: 2.00

Query string: Query COc1ccc2nc(N3CCOCC3)c(C3C(C#N)=C(N)OC4=C3C(=O)CC(C)(C)C4)cc2c1 (centres undefined) next
Result string: 2.70

Query string: Query O=C(N[C@H](CO)[C@H](O)c1ccc([N+](=O)[O-])cc1)C(Cl)Cl [CHLORAMPHENICOL] next
Result string: 1.70

Query string: Query COc1ccc2nc(N3CCOCC3)c(C3C(C#N)=C(N)Oc4c3c(=O)oc3ccccc43)cc2c1 (centres undefined) next
Result string: 2.70

Query string: Query Cc1cc2c(c(=O)o1)C(c1cc3ccccc3nc1N1CCOCC1)C(C#N)=C(N)O2 (centres undefined) next
Result string: 1.80

Query string: Query Cc1ccc2nc(N3CCOCC3)c(C3C(C#N)=C(N)Oc4cc(O)ccc43)cc2c1 (centres undefined) next
Result string: 2.30

* * *

System: Vibrio cholerae
test-description: Antimicrobial activity against Vibrio cholerae MTCC 3906 for 24 hrs by microdilution method
Format: functional
applied-conditions: MTCC 3906, 24 h
observation-type: MIC
Reply with a number, then the unit it belongs to.

Example entries and their recorded answers appear below.
COc1ccc2nc(N3CCOCC3)c(C3C(C#N)=C(N)Oc4c3ccc3ccccc43)cc2c1 (centres undefined) ... 200 µg/mL
COc1ccc2nc(N3CCOCC3)c(C3C(C#N)=C(N)OC4=C3C(=O)CC(C)(C)C4)cc2c1 (centres undefined) ... 500 µg/mL
CC1(C)S[C@@H]2[C@H](NC(=O)[C@H](N)c3ccccc3)C(=O)N2[C@H]1C(=O)O ... 100 µg/mL
Cc1ccc2nc(N3CCOCC3)c(C3C(C#N)=C(N)Oc4c3ccc3ccccc43)cc2c1 (centres undefined) ... 12.5 µg/mL
Cc1n[nH]c2c1C(c1cc3ccccc3nc1N1CCOCC1)C(C#N)=C(N)O2 (centres undefined) ... 200 µg/mL

Next up:
Query string: Which MIC value belongs to CCn1cc(C(=O)O)c(=O)c2cc(F)c(N3CCNCC3)cc21 ?
Result string: 10 µg/mL

* * *

Test system: Vibrio cholerae
test-description: Antimicrobial activity against Vibrio cholerae MTCC 3906 for 24 hrs by microdilution method
Format: functional
applied-conditions: MTCC 3906, 24 h
Output Condition met for records whose MIC is lower than 200 µg/mL, Condition not met for records at or above 200 µg/mL.

Consider the worked cases shown below.
O=C(N[C@H](CO)[C@H](O)c1ccc([N+](=O)[O-])cc1)C(Cl)Cl ... Condition met
COc1ccc2nc(N3CCOCC3)c(C3C(C#N)=C(N)Oc4[nH]nc(C)c43)cc2c1 (centres undefined) ... Condition not met
N#CC1=C(N)Oc2cc(O)ccc2C1c1cc2ccccc2nc1N1CCOCC1 (centres undefined) ... Condition not met

Query string: I'd appreciate it if you could check whether COc1ccc2nc(N3CCOCC3)c(C3C(C#N)=C(N)Oc4cc(C)oc(=O)c43)cc2c1 (centres undefined) has MIC smaller than 200 µg/mL.
Result string: Condition not met

Query string: Query N#CC1=C(N)OC2=C(C(=O)c3ccccc3C2=O)C1c1cc2ccccc2nc1N1CCOCC1 (centres undefined) next
Result string: Condition not met

Query string: Query N#CC1=C(N)Oc2c(ccc3ccccc23)C1c1cc2ccccc2nc1N1CCOCC1 (centres undefined) next
Result string: Condition not met

Query string: Query COc1ccc2nc(N3CCOCC3)c(C3C(C#N)=C(N)Oc4c3c(=O)oc3ccccc43)cc2c1 (centres undefined) next
Result string: Condition not met

Query string: Query Cc1ccc2nc(N3CCOCC3)c(C3C(C#N)=C(N)OC4=C3C(=O)CC(C)(C)C4)cc2c1 (centres undefined) next
Result string: Condition not met

Query string: Query Cc1ccc2nc(N3CCOCC3)c(C3C(C#N)=C(N)OC4=C3C(=O)c3ccccc3C4=O)cc2c1 (centres undefined) next
Result string: Condition not met

* * *

Test system: Escherichia coli
test-description: Antimicrobial activity against Escherichia coli MTCC 443 for 24 hrs by microdilution method
Assay type: functional
applied-conditions: MTCC 443, 24 h
observation-type: MIC (µg/mL)
Provide only the numeric value, understood in µg/mL.

O=C(O)c1cn(C2CC2)c2cc(N3CCNCC3)c(F)cc2c1=O [CIPROFLOXACIN] ... 25
Cc1ccc2nc(N3CCOCC3)c(C3C(C#N)=C(N)Oc4cc(C)oc(=O)c43)cc2c1 (stereo not given) ... 100
COc1ccc2nc(N3CCOCC3)c(C3C(C#N)=C(N)OC4=C3C(=O)c3ccccc3C4=O)cc2c1 (stereo not given) ... 100
COc1ccc2nc(N3CCOCC3)c(C3C(C#N)=C(N)Oc4[nH]nc(C)c43)cc2c1 (stereo not given) ... 250

Next up:
Query string: Which MIC value belongs to N#CC1=C(N)Oc2c(ccc3ccccc23)C1c1cc2ccccc2nc1N1CCOCC1 (stereo not given) ?
Result string: 500

* * *

The following compounds are listed with their measured MIC values.
Tested on: Bacillus subtilis
test-description: Antimicrobial activity against Bacillus subtilis MTCC 441 for 24 hrs by microdilution method
Assay type: functional
applied-conditions: MTCC 441, 24 h
Provide only the numeric value, understood in µg/mL.

COc1ccc2nc(N3CCOCC3)c(C3C(C#N)=C(N)Oc4c3c(=O)oc3ccccc43)cc2c1 (centres undefined) ... 200
COc1ccc2nc(N3CCOCC3)c(C3C(C#N)=C(N)OC4=C3C(=O)c3ccccc3C4=O)cc2c1 (centres undefined) ... 200
Cc1ccc2nc(N3CCOCC3)c(C3C(C#N)=C(N)OC4=C3C(=O)c3ccccc3C4=O)cc2c1 (centres undefined) ... 200
CCn1cc(C(=O)O)c(=O)c2cc(F)c(N3CCNCC3)cc21 ... 100
Cc1ccc2nc(N3CCOCC3)c(C3C(C#N)=C(N)Oc4c3c(=O)oc3ccccc43)cc2c1 (centres undefined) ... 500

Query string: Which MIC value belongs to Cc1ccc2nc(N3CCOCC3)c(C3C(C#N)=C(N)OC4=C3C(=O)CCC4)cc2c1 (centres undefined) ?
Result string: 200

Query string: Query Cc1cc2c(c(=O)o1)C(c1cc3ccccc3nc1N1CCOCC1)C(C#N)=C(N)O2 (centres undefined) next
Result string: 200

Query string: Query Cc1ccc2nc(N3CCOCC3)c(C3C(C#N)=C(N)Oc4cc(O)ccc43)cc2c1 (centres undefined) next
Result string: 500

Query string: Query Cc1ccc2nc(N3CCOCC3)c(C3C(C#N)=C(N)Oc4[nH]nc(C)c43)cc2c1 (centres undefined) next
Result string: 200

* * *

Test system: Bacillus subtilis
test-description: Antimicrobial activity against Bacillus subtilis MTCC 441 for 24 hrs by microdilution method
Type: functional
applied-conditions: MTCC 441, 24 h
Output fulfilled for records whose MIC is lower than 200 µg/mL, not fulfilled for records at or above 200 µg/mL.

Consider the worked cases shown below.
N#CC1=C(N)Oc2c(ccc3ccccc23)C1c1cc2ccccc2nc1N1CCOCC1 (centres undefined) ... not fulfilled
N#CC1=C(N)OC2=C(C(=O)CCC2)C1c1cc2ccccc2nc1N1CCOCC1 (centres undefined) ... fulfilled
N#CC1=C(N)OC2=C(C(=O)c3ccccc3C2=O)C1c1cc2ccccc2nc1N1CCOCC1 (centres undefined) ... not fulfilled
O=C(N[C@H](CO)[C@H](O)c1ccc([N+](=O)[O-])cc1)C(Cl)Cl ... fulfilled
Cc1ccc2nc(N3CCOCC3)c(C3C(C#N)=C(N)Oc4c3ccc3ccccc43)cc2c1 (centres undefined) ... not fulfilled

Query string: I'd appreciate it if you could check whether COc1ccc2nc(N3CCOCC3)c(C3C(C#N)=C(N)OC4=C3C(=O)CCC4)cc2c1 (centres undefined) has MIC smaller than 200 µg/mL.
Result string: not fulfilled

Query string: Query N#CC1=C(N)Oc2c(c(=O)oc3ccccc23)C1c1cc2ccccc2nc1N1CCOCC1 (centres undefined) next
Result string: not fulfilled

Origin of the recorded values: ChEMBL document CHEMBL1833797
